Test system: A549/ATCC NSCLC
Assay: NCI-60 one-dose screen, 48 h
Conditions: 10 µM unless noted
The panel holds about 83,000 compounds, 20% with a hit somewhere; the sample as a whole holds those more often. The source made the active and inactive calls. Rule for the calls: active = growth percent below 10; inactive = the rest.
Return exactly one item of label 1 = active, label 0 = inactive

Answered cases to consult:
INSERT INTO results (compound, category_label) VALUES
  ('CCOc1cc(\C=N/N=C(N)/C(N)=N\N=C/c2ccc(O)c(OCC)c2)ccc1O', 'label 0'),
  ('COc1ccc(C(=O)/C=C/c2ccc(Cl)cc2)cc1S(N)(=O)=O', 'label 0'),
  ('O=C1c2ccccc2C(=O)c2cc(Cn3c[n+](Cc4ccc5ccccc5c4)c4ccccc43)ccc21', 'label 0'),
  ('COC(=O)c1nc(-c2ccccc2)oc1S(=O)(=O)N1CCN(c2ccc(OC)cc2)CC1', 'label 0'),
  ('C(CCCSC1=NCCN1)CCSC1=NCCN1', 'label 0');

Q: Outcome logged for CCN1CCN(c2nc(NNC(=O)c3ccc(OC)cc3)nc(N3CCN(C(c4ccccc4)c4ccccc4)CC3)n2)CC1 in this assay:
Ans: label 0

Q: Outcome logged for CCOC(=O)C1=C(c2ccccc2)N=C2SC=C(c3cccc([N+](=O)[O-])c3)N2C1c1ccc(O)cc1 (configuration not stated) in this assay:
Ans: label 0
